Kindly supply the reported LD50 values for the records listed here.
Assay Details: in vivo
Test Conditions: mouse, ip

Query string: Return the recorded LD50 value; entry: CC(C)Sc1ccc(C(O)C(C)Nc2ccc(C3CCCCC3)cc2)cc1 (stereo not drawn) [Compound 9]
Result string: > 400 mg/kg

Query string: Output measured LD50 for this item: CC(C)Sc1ccc([C@@H](O)[C@@H](C)N2CCN(C(=O)C=Cc3ccccc3)CC2)cc1 (relative stereo) [Compound 2]
Result string: > 4000 mg/kg

Query string: Answer with the recorded LD50 for the molecule listed here: CC(C)Sc1ccc(C(O)C(C)NC2CCCCC2c2ccccc2)cc1 (stereo not drawn) [Compound 11]
Result string: > 400 mg/kg
